Field: CLhep predicted. Provide a value for each of the compounds that follow.
Assay: Clearance in mouse liver microsomes
Type: ADME, Microsome
The response must be a number in mL/min/kg with no trailing unit.

Task: Look up and state reported CLhep predicted for CCNC(=O)Nc1ccc(-c2nc3c(c(N4CCOC[C@@H]4C)n2)C[C@@H]2CC[C@H]3N2S(C)(=O)=O)cc1
Result: 49

Task: Supply CLhep predicted value. Item: CCNC(=O)Nc1ccc(-c2nc3c(c(N4CCOC[C@@H]4C)n2)C[C@@H]2CC[C@H]3N2C2COC2)cc1
Result: 51

Task: Tell me CLhep predicted reported for CCNC(=O)Nc1ccc(-c2nc3c(c(N4CCOC[C@@H]4C)n2)C[C@@H]2CC[C@H]3N2C)cc1
Result: 50

This collection of values is drawn from ChEMBL document CHEMBL2331485.
